# Test system: Euphorbia heterophylla (EPHHL)
# Experimental details: Post-emergence efficacy, Method A
# Format: in vivo
# Applied conditions: 500 g/Ha, 100=total damage to plant, 0=no damage, evaluated after 7 and 14 days, read-out: Control of weed species after post-emergence application, EPHHL
Assign pest or weed control at 500 g/ha to each entry below.
Answers are plain numbers, in %.

Worked examples follow.
{"Query smiles": "O=C(O)CC[n+]1ccc(-c2ncno2)cc1", "pest or weed control at 500 g/ha (%)": 30}
{"Query smiles": "O=C(O)CC[n+]1ccc(-c2nccs2)cc1", "pest or weed control at 500 g/ha (%)": 0}
{"Query smiles": "O=S(=O)([O-])C[n+]1ccc(-c2ccns2)cc1", "pest or weed control at 500 g/ha (%)": 20}
{"Query smiles": "O=C(O)CC[n+]1ccc(-c2ncns2)c(Cl)c1", "pest or weed control at 500 g/ha (%)": 100}

Field: pest or weed control at 500 g/ha. Fill in for each record below.
1. O=S(=O)([O-])C[n+]1ccc(-c2nc(Br)ns2)cc1
2. O=C(O)CC[n+]1ccc(-c2nc(O)ns2)cc1
3. N#Cc1nsc(-c2cc[n+](CCC(=O)O)cc2)n1
4. Nc1nsc(-c2cc[n+](CCC(=O)O)cc2)n1
5. O=S(=O)([O-])CC[n+]1ccc(-c2cnns2)cc1

Output:
1. 100
2. 10
3. 20
4. 80
5. 50

Task: Sample O=C(O)C[n+]1ccc(-c2nc(O)ns2)cc1 — what was its pest or weed control at 500 g/ha?
Output: 30

====

# Test system: Ipomoea hederacea (IPOHE)
# Experimental details: Post-emergence efficacy, Method A
# Type: in vivo
# Applied conditions: 500 g/Ha, 100=total damage to plant, 0=no damage, evaluated after 7 and 14 days, read-out: Control of weed species after post-emergence application, IPOHE
Test readout: pest or weed control at 500 g/ha (%)
Numbers only, in %.

{"Query smiles": "O=S(=O)([O-])C[n+]1ccc(-c2nc(C(F)(F)F)co2)cc1", "pest or weed control at 500 g/ha / %": 30}

Below are some compounds; for each one, tell me its pest or weed control at 500 g/ha.
1. O=C(O)C[n+]1ccc(-c2ncsn2)cc1
2. Nc1nsc(-c2cc[n+](CCC(=O)O)cc2)n1
3. O=S(=O)([O-])C[n+]1ccc(-c2nc(Br)ns2)cc1

Output:
10
20
30

Task: Returns the measured pest or weed control at 500 g/ha for the input compound. Input: O=C(O)CC[n+]1ccc(-c2ncns2)c(Cl)c1
Output: 30

====

# System: Euphorbia heterophylla (EPHHL)
# Experimental details: Post-emergence efficacy, Method A
# Format: in vivo
# Applied conditions: 500 g/Ha, 100=total damage to plant, 0=no damage, evaluated after 7 and 14 days, read-out: Control of weed species after post-emergence application, EPHHL
Checkbox rule: pest or weed control at 500 g/ha lower than 20% = rule met; pest or weed control at 500 g/ha not lower than 20% = rule not met.

Previously resolved entries follow.
{"Compound": "O=S(=O)([O-])C[n+]1ccc(-c2nccs2)cc1 [Compound A84]", "Classification": "rule not met"}
{"Compound": "O=C(O)C[n+]1ccc(-c2cnns2)cc1 [Compound A9]", "Classification": "rule met"}
{"Compound": "Cc1nnc(-c2cc[n+](CCCS(=O)(=O)[O-])cc2)o1 [Compound A36]", "Classification": "rule not met"}

Task: Just wondering, is pest or weed control at 500 g/ha of O=C(O)C[n+]1ccc(-c2nc(C(F)(F)F)cs2)cc1 [Compound A22] below 20%?
Output: rule not met

Task: Lab log: compare recorded pest or weed control at 500 g/ha with 20%; is it strictly lower for O=S(=O)([O-])C[n+]1ccc(-c2ncns2)cc1 [Compound A4] ?
Output: rule not met
